Tested on: PRKD3;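 also: kd values determined as follow-up on hits from a single-replicate KINOMEscan panel screen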
measurement_kind: Kd (nM)
State the answer as a number, implicitly in nM.

State its Kd on PRKD3: Cc1cccc(-c2nc(Nc3ccc4c(cnn4C)c3)c3ccccc3n2)n1
13

----------
Tested on: ULK3;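 also: KINOMEscan kinase panel screen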
Settings: concentration: 1 μM, replicates: in singlicate; n = 1
Recorded measurements of %Inh, one per entry
A number alone suffices; assume %.

compound: COc1ccc(CNC(=O)NC2CCN(c3ccnc(Nc4ccc(F)cc4)n3)C2)cc1 (stereo not drawn)
quantitative_readout: 0
//
compound: CCC(=O)c1c(-c2ccccc2)c2cc(Cl)ccc2c(=O)n1Cc1cc(S(C)(=O)=O)n(CC(F)F)n1
quantitative_readout: 0
//
compound: COc1ccc(-c2coc3ccc(-c4nnc(SCc5cccc(C#N)c5)o4)cc23)cc1
quantitative_readout: 81
//
compound: Nc1nc(-c2ccccc2F)c(-c2ccnc3ccccc23)s1
quantitative_readout: 4
//
compound: CCc1ccc(-c2ccc3c(c2)-c2nn(C)cc2S(=O)(=O)N3C)cc1
quantitative_readout: 0

# lookup: %Inh of COc1cc2ncn(-c3cc(OCc4ccc(S(C)(=O)=O)cc4)c(C(N)=O)s3)c2cc1OC
22

Can you look up the measured %Inh of O=C(Nc1n[nH]c2cc(-c3ccccc3F)ccc12)C1CC1 for me?
33

Value lookup for %Inh; key = CCn1c(-c2nonc2N)nc2ccccc21
20

Report %Inh for Nc1n[nH]c2nnc(-c3ccccc3)c(-c3ccccc3)c12 please.
16
